- ASSAY: enzyme screen for hydrolysis/methanolysis of butyl-KLG (HPLC of products and remaining substrate)
- Type: biochemical
- Parameters: unit: ppm
- TEST_CONTEXT: Table 8: 38° C., 21 Hours, 8.6% Methanol-Water, 0.2 M MES
ASSAY_ENDPOINT: KLG formed (ppm)
Use ppm as the unit, but write only the number.

Query: Complete the entry with KLG formed for Mucor meihei Lipase: Mucor meihei Lipase (protein, UniProt P19515 95-363, looked up) Lipase: SIDGGIRAATSQEINELTYYTTLSANSYCRTVIPGATWDCIHCDATEDLKIIKTWSTLIYDTNAMVARGDSEKTIYIVFRGSSSIRNWIADLTFVPVSYPPVSGTKVHKGFLDSYGEVQNELVATVLDQFKQYPSYKVAVTGHSLGGATALLCALDLYQREEGLSSSNLFLYTQGQPRVGDPAFANYVVSTGIPYRRTVNERDIVPHLPPAAFGFLHAGEEYWITDNSPETVQVCTSDLETSDCSNSIVPFTSVLDHLSYFGINTGLCT
Response: 243
